Parameter IC50: see the listing below.
TARGET OR SYSTEM: CpunPBP2-m4 (CpunPBP2-Phe115 mutant) (Conogethes punctiferalis, UniProt A0A1D6X8W8, F139Y)
Sequence (A0A1D6X8W8 entry or part of it F139Y): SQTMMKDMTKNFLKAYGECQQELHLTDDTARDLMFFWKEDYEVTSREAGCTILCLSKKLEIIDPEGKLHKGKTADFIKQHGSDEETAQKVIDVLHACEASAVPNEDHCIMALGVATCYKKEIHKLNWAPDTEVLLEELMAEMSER
EXPERIMENT SUMMARY: Fluorescence displacement binding assay of mutants
Supply the numeric figure in µM, leaving out any unit text.

CCCCC/C=C\CCCCCCCCC=O [Z10-16:Ald, (Z)-10-hexadecenal] : 15.4

Now, please, on to the next compound.
Given item CCCCC/C=C/CCCCCCCCC=O [E10-16:Ald, (E)-10-hexadecenal] , the value recorded as its IC50 is 30

====

TARGET OR SYSTEM: CpunPBP2 (Conogethes punctiferalis, UniProt A0A1D6X8W8)
Sequence (A0A1D6X8W8 entry or part of it): as the sequence (A0A1D6X8W8 entry or part of it F139Y) above, with Y118F counted along it
EXPERIMENT SUMMARY: Fluorescence displacement (competitive, 1-NPN) binding assay
TEST SETTINGS: read-out: dissociation constant (KD) of CpunPBP2/1-NPN complex; direct titration of 2 μM protein with 1-NPN, Scatchard plot, pH 7.4
OBSERVABLE: Kd (nM)
Supply the numeric figure in nM, leaving out any unit text.

Given item c1ccc(Nc2cccc3ccccc23)cc1 [1-NPN, N-phenyl-1-naphthylamine, reference compound] , the value recorded as its Kd is 760

====

TARGET OR SYSTEM: CpunPBP5-m1 (CpunPBP5-Ser9 mutant) (Conogethes punctiferalis, UniProt A0A0M4FIS7, S34T)
Sequence (A0A0M4FIS7 entry or part of it S34T): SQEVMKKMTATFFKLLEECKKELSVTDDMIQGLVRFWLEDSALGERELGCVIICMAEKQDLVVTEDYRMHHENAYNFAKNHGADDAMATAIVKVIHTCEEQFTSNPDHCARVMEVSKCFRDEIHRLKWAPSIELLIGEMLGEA
EXPERIMENT SUMMARY: Fluorescence displacement binding assay of mutants
Parameter Kd: see the listing below.
Supply the numeric figure in nM, leaving out any unit text.

CCCCC/C=C\CCCCCCCCC=O [Z10-16:Ald, (Z)-10-hexadecenal] : 720

Now, please, on to the next compound.
Given item CCCCC/C=C/CCCCCCCCC=O [E10-16:Ald, (E)-10-hexadecenal] , the value recorded as its Kd is 720

====

Parameter activity at 6000 µM: see the listing below.
TARGET OR SYSTEM: CpunPBP5 (Conogethes punctiferalis, UniProt A0A0M4FIS7)
Sequence (A0A0M4FIS7 entry or part of it): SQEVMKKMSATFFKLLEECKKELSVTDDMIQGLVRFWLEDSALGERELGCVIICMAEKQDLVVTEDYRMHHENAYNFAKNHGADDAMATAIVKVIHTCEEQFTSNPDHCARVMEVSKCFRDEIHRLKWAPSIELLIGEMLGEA
EXPERIMENT SUMMARY: Fluorescence displacement (competitive, 1-NPN) binding assay
TEST SETTINGS: pH 7.4, read-out: Int (%)
Supply the numeric figure in %, leaving out any unit text.

Past entries and their recorded results:
CCCCCCCCCCCCCCO : 42.3
C=C1CCC2CC1C2(C)C (centres unmarked) : 68.4
CC(=O)/C=C/C1C(C)=CCCC1(C)C (centres unmarked) : 55.3

Given item CC/C=C\CCO [cis-3-hexen-1-ol] , the value recorded as its activity at 6000 µM is 66.8

Given item CC(=O)/C=C/C1=C(C)CCCC1(C)C , the value recorded as its activity at 6000 µM is 62.6

====

TARGET OR SYSTEM: CpunPBP2-m3 (CpunPBP2-Ser53 mutant) (Conogethes punctiferalis, UniProt A0A1D6X8W8, S77Y)
Sequence (A0A1D6X8W8 entry or part of it S77Y): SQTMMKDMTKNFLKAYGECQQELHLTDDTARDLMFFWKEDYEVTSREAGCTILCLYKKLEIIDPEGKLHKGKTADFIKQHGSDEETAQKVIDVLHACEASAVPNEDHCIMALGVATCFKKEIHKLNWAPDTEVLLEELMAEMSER
EXPERIMENT SUMMARY: Fluorescence displacement binding assay of mutants
OBSERVABLE: pIC50
Scale explanation: pIC50 corresponds to minus log10 of a concentration expressed in moles per litre.

CCCCC/C=C/CCCCCCCCC=O [E10-16:Ald, (E)-10-hexadecenal] : 5.98

Now, please, on to the next compound.
Given item CCCCC/C=C\CCCCCCCCC=O [Z10-16:Ald, (Z)-10-hexadecenal] , the value recorded as its pIC50 is 6.04

====

Parameter Int (%): see the listing below.
TARGET OR SYSTEM: CpunPBP5 (Conogethes punctiferalis, UniProt A0A0M4FIS7)
EXPERIMENT SUMMARY: Fluorescence displacement (competitive, 1-NPN) binding assay
TEST SETTINGS: ratio of fluorescence intensity at the pheromone concentration of 6 mM to the initial fluorescence intensity; pH = 7.4
Your answer should be a number followed by the unit of measure.

CCCCC/C=C/C=O [Trans-2-octanal] : 62.12 ± 0.30%
C=CC(=C)CC/C=C(\C)CCC=C(C)C [β-farnesene] : 47.47 ± 0.12%
C=C1CC/C=C(\C)CC[C@@H]2[C@@H]1CC2(C)C (relative stereo) [Trans-caryopyllene] : 45.87 ± 0.10%

Now, please, on to the next compound.
Given item C=C(C)[C@H]1CC=C(C)CC1 [Limonene] , the value recorded as its Int (%) is 60.13 ± 0.09%
